# System: Mycobacterium tuberculosis
# assay-summary: Antitubercular activity against Mycobacterium tuberculosis H37Rv ATCC 27294 after 5 to 8 days by microplate alamar blue assay
# Format: functional
value-type: MIC

What MIC value was documented for this compound, Cc1ccc(N/N=C2\C(=O)Nc3c(Cl)ccc(Cl)c3C2=O)cc1 ? > 6.25 µg/mL

Query: MIC; subject: Cc1cccc2c1NC(=O)/C(=N\Nc1cccc(Cl)c1)C2=O > 6.25 µg/mL

// returns reported MIC for input O=C1Nc2c(Cl)ccc(Cl)c2C(=O)/C1=N/Nc1ccc(F)cc1 < 6.25 µg/mL

Consider the compound shown here: O=C1Nc2c(cccc2[N+](=O)[O-])C(=O)/C1=N/Nc1cccc([N+](=O)[O-])c1 What is its recorded MIC? < 6.25 µg/mL

So what's the measured MIC for this one? Cc1cccc(C)c1N/N=C1\C(=O)Nc2c(cccc2[N+](=O)[O-])C1=O > 6.25 µg/mL

More entries:
Name the recorded MIC for O=C1Nc2cc(Cl)ccc2C(=O)/C1=N/Nc1cccc(Cl)c1 . > 6.25 µg/mL

Origin of values: ChEMBL document CHEMBL2417447
